Below is a list of entries, each paired with its recorded pKi value.
assay: Compound was evaluated for inhibition of Van X at pH 7.0
pKi: −log10 of the molar value.
endpointLabel: pKi

> print(dat)
                                   compound  number
1  CC(NP(=O)(O)C(C)N)C(=O)O (configuration not stated)    4.44
2  CC(OP(=O)(O)C(C)N)C(=O)O (configuration not stated)    3.40
